EXPERIMENT DESCRIPTION: Antiproliferative activity against human FS4-LTM cells after 24 hrs by WST-1 assay
Format: ADME, cell-based
Listing of entries alongside the reported log10(IC50).
MEASURE: log10(IC50) (log10 of the value in µM)

SMILES STRING: C=C1Cc2c(O)c(OC)cc(O)c2C(=O)[C@H]2O[C@]2(C)CC[C@H]1Br
MEASURE: log10(IC50)
VALUE OBSERVED: 1.15
--
SMILES STRING: COc1cc(O)c2c(c1O)C[C@]1(C)O[C@@H]1CC[C@@]1(C)O[C@@H]1C2=O
MEASURE: log10(IC50)
VALUE OBSERVED: 1.46
--
SMILES STRING: COc1cc(O)c2c(c1O)C/C(CO)=C\CC[C@@]1(C)O[C@@H]1C2=O
MEASURE: log10(IC50)
VALUE OBSERVED: 1.62
--
SMILES STRING: COc1cc(O)c2c(c1O)C/C(C)=C\CC[C@@]1(C)O[C@@H]1C2=O
MEASURE: log10(IC50)
VALUE OBSERVED: 1.45
--
SMILES STRING: COC1=CC(=O)C2=C(C/C(C)=C\CC[C@@]3(C)O[C@@H]3C2=O)C1=O
MEASURE: log10(IC50)
VALUE OBSERVED: 1.45
--
SMILES STRING: COc1cc(O)c2c(c1O)C/C(CBr)=C\CC[C@@]1(C)O[C@@H]1C2=O
MEASURE: log10(IC50)
VALUE OBSERVED: 1.46
--
SMILES STRING: COC1=CC(=O)C2=C(C[C@]3(C)O[C@@H]3CC[C@@]3(C)O[C@@H]3C2=O)C1=O
MEASURE: log10(IC50)
VALUE OBSERVED: 1.49
--
SMILES STRING: COc1cc(O)c2c(c1O)C/C(C(OC(C)=O)OC(C)=O)=C\CC[C@@]1(C)O[C@@H]1C2=O
MEASURE: log10(IC50)
VALUE OBSERVED: 0.40
--
SMILES STRING: COc1cc(O)c2c(c1O)[C@@H](O)/C(C)=C\CC[C@@]1(C)O[C@@H]1C2=O
MEASURE: log10(IC50)
VALUE OBSERVED: 1.46
